Experiment: folding enthalpy; higher = less favourable; fluorescence melt of hairpins on a sequencing array, two-state fit
Details: sodium 0.088 M
In this scheme, each record receives a class according to its folding enthalpy; the ranges are low band = under -30 kcal/mol, middle band = from -30 kcal/mol up to -20 kcal/mol, high band = -20 kcal/mol and over

These solved cases illustrate the format of a correct answer.
{"columns": ["MONOMER_SEQUENCE", "ASSIGNED_LABEL"],
 "data": [
  ["GCCTCCGAAAGGATCGGC ((((((....)))..)))", "middle band"],
  ["CGTGCGGAAACGCTACG ((((((....))).)))", "middle band"],
  ["GCCCACGAAAGTGCAGGC ((((((....)))..)))", "middle band"],
  ["GACAGGCGAAAGCCAGTC (((.(((....))).)))", "middle band"]
]}

q: Band for the recorded folding enthalpy of GTATCAGGAAACTGATGC (.(((((....))))).) ?
a: middle band

q: Lab log: GACCGACCGAAAGGTGTC (((..(((....)))))) — assign folding enthalpy category
a: high band

q: Which category does the recorded folding enthalpy put GATTACGAAAGTATAATC ((((((....)))..))) in?
a: high band

q: Each sequence maps to one class by folding enthalpy. Which class for TGATCGAAAGATCA (((((....))))) ?
a: middle band

q: Kindly state the category for this sequence: GTCGTGGGAAACTACGGC (.(((.(....).))).)
a: middle band

====

Measured folding enthalpy of individual entries
Experiment: folding enthalpy; higher = less favourable; fluorescence melt of hairpins on a sequencing array, two-state fit
Details: sodium 0.088 M
Give a bare numeral; the unit kcal/mol is implied.

{"columns": ["MONOMER_SEQUENCE", "REPORTED_PROPERTY", "READOUT_NUMBER"],
 "data": [
  ["GGGTGCGGAAACGCATCC ((.((((....)))).))", "folding enthalpy", -29.8],
  ["GATACGGGAAACCGTACC (.(((((....))))).)", "folding enthalpy", -15.7],
  ["GCAACCGAAAGGTTTGC ((((((....))).)))", "folding enthalpy", -23.6],
  ["GCAGGGGGAAACCCCCAC (..((((....))))..)", "folding enthalpy", -9.57],
  ["GCCGTGCGAAAGCGGGGC (((..((....))..)))", "folding enthalpy", -34.8],
  ["TGTTGGAAACAACA (((((....)))))", "folding enthalpy", -18.5],
  ["GGGTGAGAAATCACCC ((((((....))))))", "folding enthalpy", -37.1],
  ["GGGACTGGAAACGGTCCC (((((.(....).)))))", "folding enthalpy", -44.6]
]}

q: Report folding enthalpy for GTTAGCGAAAGCTGGAAC ((((((....)))..))) please.
a: -8.68

q: Sample GGCCCTGGAAACAGGACC ((.((((....)))).)) — what was its folding enthalpy?
a: -35.3

q: Look up folding enthalpy: GAACGGGGAAACCTGTTC ((((.((....)).))))
a: -32.4

q: Look up folding enthalpy for this sequence: GCAGGGCGAAAGCTCAGC ((.(.((....)).).))
a: -18.4

q: Looking for the measured folding enthalpy of GGCGTGGGAAACCACACC ((.((((....)))).)) , can you help?
a: -35.3

q: Field request: folding enthalpy | item: GGACTTCGAAAGAATCC (((.(((....))))))
a: -21.7

q: # folding enthalpy lookup, item GCGTCCGAAAGGATCGC ((((((....))).)))
a: -37.8

====

Test: folding enthalpy; higher = less favourable; fluorescence melt of hairpins on a sequencing array, two-state fit
Settings: sodium 0.088 M
Measured folding enthalpy values are reported for all entries that follow.
Give a bare numeral; the unit kcal/mol is implied.

The examples below pair each entry with its known result.
{"columns": ["MONOMER_SEQUENCE", "OUTPUT_UNIT", "READOUT_NUMBER"],
 "data": [
  ["GGATTACGAAAGTAGTCC (((.(((....))).)))", "kcal/mol", -37.5],
  ["GTAAGTGGAAACATTTAC ((((.((....)).))))", "kcal/mol", -25.6],
  ["GTTATGGGAAACCATAGC (.(((((....))))).)", "kcal/mol", -24.1],
  ["GCTAAGCGAAAGCCGAGC (((..((....))..)))", "kcal/mol", -19.1],
  ["GCACCAGGAAACCGGTGC (((((.(....).)))))", "kcal/mol", -42.4],
  ["GCTATAACGAAAGTTAGC (((..(((....))))))", "kcal/mol", -19.8],
  ["GTGGTTCGAAAGAAGCAC (((.(((....))).)))", "kcal/mol", -41.7],
  ["GGTTGCGAAAGCAAGACC ((((((....)))..)))", "kcal/mol", -14.6],
  ["GTACGCCGAAAGGCTAC (((.(((....))))))", "kcal/mol", -15.1],
  ["GCTGTGCGAAAGCCGAGC (((..((....))..)))", "kcal/mol", -19]
]}

q: Which value of folding enthalpy has been reported for GGGATACGAAAGTACCC (((.(((....)))))) in the records?
a: -27.4

q: Endpoint output: folding enthalpy of GGGCACACGAAAGTGCCC (((..(((....)))))) . Value?
a: -30.4

====

# Lookup of reported Tm keyed by entry
Test: melting temperature; fluorescence melt of hairpins on a sequencing array, two-state fit, raised by 9.35 °C to match UV melts
Conditions: sodium 0.088 M
Numbers only here, please. The scale is °C.

Illustrative cases are given below, each with its answer.
{"columns": ["MONOMER_SEQUENCE", "Tm [°C]"],
 "data": [
  ["GATCGTGGCTACGATC ((((((....))))))", 59],
  ["GTATATCGAAAGATTAC (((.(((....))))))", 31],
  ["GATCCGGGCCGGATC ((((((...))))))", 60.3],
  ["GGTCCCGGAAACGAGACC ((((.((....)).))))", 49.6],
  ["GTGGACGGAAACACCCAC ((((..(....)..))))", 30.4],
  ["GAGGCAGGAAACTACCTC ((((.((....)).))))", 40.3]
]}

q: Which Tm is reported for this sequence? GAGTGCGGAAACGCGCTC (((.(((....))).)))
a: 66.1

q: Param item = CCACAGAAATGTGG (((((....))))) ; retrieve measured Tm.
a: 50.5

q: Need Tm, item GGCTTCGAAAGAACGCC ((((((....))).)))
a: 50.9

q: Item GCATGCGAAAGCATCTGC ((((((....)))..))) has what recorded Tm?
a: 47

q: Given the entry CGAGCGGAAACGCATTCG ((((((....)))..))) , report its measured Tm.
a: 33.1

q: Data request, read-out Tm, for GCTTGGGGAAACCTGAGC (((..((....))..)))
a: 40

q: Name the recorded Tm for GCATGGCGAAAGCCTGGC ((..(((....)))..)) .
a: 53.4

q: Suppose we examine the sequence GCAGGGCGAAAGCGCCGC ((.(.((....)).).)) ; what Tm value has been reported?
a: 52.6

====

Test: melting temperature; fluorescence melt of hairpins on a sequencing array, two-state fit, raised by 9.35 °C to match UV melts
Details: sodium 0.088 M
Recorded measurements of Tm, one per entry
The reply should contain only the number, in °C.

Example cases with answers are listed next.
{"columns": ["MONOMER_SEQUENCE", "READOUT_NUMBER"],
 "data": [
  ["GATCTGACGGCAGATC ((((((....))))))", 51.4],
  ["GTCTGGGGAAACCTAGGC (.((.((....)).)).)", 34.8]
]}

q: I have this sequence here, GTTGACGGAAACGTCAGC (.(((((....))))).) , and I need its recorded Tm.
a: 52.5

q: // query Tm value for entry GATTCCCGAAAGGGGATC (((.(((....))).)))
a: 57.3

q: Any idea what Tm was measured for GTCGGTGGAAACACTGGC (.(.(((....))).).) ?
a: 42.8

q: What does the record list as Tm for GACCACGAAAGTGGAGTC ((((((....)))..))) ?
a: 38.4

q: Fill in: Tm of GGAGATTCGAAAGAATCC (((..(((....)))))) is ___
a: 38.7

q: Sample CGCTCGGAAACGACGGCG ((((((....)))..))) — what was its Tm?
a: 46.6

q: Please give the measured Tm for this sequence: GTGTGCGAAAGCAAACAC ((((((....)))..)))
a: 51.7

q: What value of measured Tm is listed for GGATGCGAAAGCACCTCC ((((((....)))..))) ?
a: 54.6

q: I am curious: what Tm value has been reported for GGCGCCCGAAAGGGGCC (((.(((....)))))) ?
a: 67.4

q: Look at this sequence and give its reported Tm. GATTTGGGAAACCAAGTC ((.((((....)))).))
a: 38.8

q: # input sequence: GTTTGTGGAAACACAGAC ((.((((....)))).)) ; wanted: its Tm
a: 43.9

q: Query: Tm; subject: CGATCGGAAACGAGATCG ((((((....)))..)))
a: 42.5

q: Request the reported Tm associated with GATCCTTTTCAGGATC ((((((....))))))
a: 52.6

q: Field request: Tm | item: CGAGACGGAAACGTATCG (((.(((....))).)))
a: 52.1

q: Tm for GGTAATGGAAACATTATC (.(((((....))))).) ?
a: 35.7

q: So what does the record say about Tm for GTCGTCGAAAGACGCGAC ((((((....)))..))) ?
a: 55.7
